Record form. Attribute: growth inhibition. Fill in for each entry.
Test: NCI Yeast Anticancer Drug Screen. Data for the cln2 rad14 strain (AID 165);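 note: 0% = growth equal to vehicle treated cultures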
Conditions: S. cerevisiae cln2 rad14 strain, at 50.0 µM, active compounds read high
About 79,000 compounds went through this panel and 15% of them were active in at least one assay; those are over-represented in the sample as a whole.
Answers are plain numbers, in %.

COMPOUND	READOUT NUMBER
NC1=Nc2ccccc2Sc2ccccc21	2.5
N#CCC(=O)[O][Sn]([c]1ccccc1)([c]1ccccc1)[c]1ccccc1	97.8
O=C1C(=C([O-])c2ccccc2)C(=O)c2ccccc21.O=C1C(=C([O-])c2ccccc2)C(=O)c2ccccc21.[Fe+2]	22.2
C=CCOCN1c2cc(OC)c([C@@]3(C(=O)OC)C[C@@H]4CN(CCc5c3[nH]c3ccccc53)C[C@](O)(CC)C4)cc2[C@@]23CCN4CC=C[C@@](CC)([C@@H](OC(C)=O)[C@](O)(C(=O)OC)[C@H]12)[C@H]43	0.2

Give measured growth inhibition for every item shown.
1. C/C=C/C(=O)O
2. S=P(N1CCCCC1)(N1CCCCC1)N1CCCCC1
3. CCOc1cc(OCC)c(OCC)cc1/C=C/[N+](=O)[O-]
4. [CH3][Sn]([CH3])([n]1cnc(N)nc1=O)[n]1cnc(N)nc1=O
5. CCN1CCc2cc(OC)c(OC)cc2C1
6. O=NN1CCN(N=O)CC1

stdout:
10.2
-17.8
77
-1.45
-25.9
8.95

Give measured growth inhibition for every item shown.
1. CCN1C(=O)C(C)C(=O)N(C)C1=O (stereo not drawn)
2. O=C1/C(=C\c2ccccc2)C2OCC=C3CN4CCC56c7ccccc7N1C5C2C3CC46 (stereo not drawn)
3. c1ccc(CCN2CCCCC2)cc1
4. CC(C)c1ccc(CCN)cc1
5. CSC(=S)N(C)c1nc(=[N+](C)C)ss1
6. CC(C)OP(=O)(NC(=S)c1ccccc1)OC(C)C

stdout:
1. -11.4
2. -3.25
3. -2.45
4. -0.2
5. -32.4
6. 11.4

* * *

Record form. Attribute: growth inhibition. Fill in for each entry.
Test: NCI Yeast Anticancer Drug Screen. Data for the bub3 strain (AID 167)
Conditions: S. cerevisiae bub3 mutant strain, at 50.0 µM, active compounds read high
About 79,000 compounds went through this panel and 15% of them were active in at least one assay; those are over-represented in the sample as a whole.
One number for each entry, in %.

Worked examples, 2 molecules total:
MOLECULE	growth inhibition / %
[C-]#[O+].[C-]#[O+].[C-]#[O+].[C-]#[O+].[Fe].[N-]=C(C(F)(F)F)C(F)(F)F	-11.2
Cc1cc([N+](=O)[O-])c(N)c([N+](=O)[O-])c1	-10.8

Give measured growth inhibition for every item shown.
1. CCCc1c(C#N)c(S)[nH]c(=S)c1C#N
2. c1ccc2c(c1)ccc1sc3c([n+]12)CCC3
3. O=P(N1CCNCC1)(N1CCNCC1)N1CCNCC1
4. O=C(Nc1c(O)[nH]c(=S)[nH]c1=O)c1ccco1

stdout:
4.55
2.4
5.45
-13.2

Give measured growth inhibition for every item shown.
1. c1ccc(-c2csc3[nH]c4ccccc4[n+]23)cc1
2. CCc1c2c(c(C)n1C)C(c1ccccc1)=NCC(=O)N2
3. c1ccc(N=Nc2ccccc2)cc1

stdout:
1: 5.25; 2: 13.4; 3: -5.15

Give measured growth inhibition for every item shown.
1. O=NN1CCCCCCC1C(=O)O (centres undefined)
2. S=P(C1CCCCC1)(C1CCCCC1)C(c1cccnc1)N1CCCC1 (centres undefined)
3. CC(C)(C)c1cc(C=C(C#N)C#N)cc(C(C)(C)C)c1O
4. CC(=O)O[C@@]12CO[C@@H]1CC(O)[C@@]1(C)C(=O)[C@H](O)C3=C(C)C(O)C[C@@](O)(C(OC(=O)c4ccccc4)C12)C3(C)C (some centres undefined)
5. O=C1C(Br)=C(N2CC2)C(=O)C(Br)=C1N1CC1
6. C1CCN2CC34CC(CC5CCCN(C6CCCC3N6)C54)C2C1 (centres undefined)
7. O=S1(F)=NP(N2CC2)(N2CC2)=NP(N2CC2)(N2CC2)=N1 (centres undefined)

stdout:
1: 9.15; 2: 20.6; 3: 48.6; 4: -29.4; 5: 39; 6: -36.3; 7: -19.6

* * *

Record form. Attribute: growth inhibition. Fill in for each entry.
Test: NCI Yeast Anticancer Drug Screen. Data for the rad50 strain (AID 155);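 note: 0% = growth of vehicle-only cultures of the same strain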
Conditions: S. cerevisiae rad50 strain growth inhibition; at 50.0 µM; active compounds read high
The panel holds about 79,000 compounds, 15% with a hit somewhere; the sample as a whole holds those more often.
Give bare numbers, in %.

MOLECULE	UNIT ABBREVIATION	growth inhibition
CC/C=C/C1(C(C)C)C(=O)NC(=O)NC1=O (tested in a mixture with another compound)	%	14.9
O=C(O)c1ccc(=O)[nH]c1	%	25.6
CCOP(=S)(NCCCOC)OCC	%	0.25
CN(C)C(=S)Oc1ccc(Cl)cc1S(=O)(=O)F	%	53.6
CCOP(=O)(OCC)/C(C#N)=C/c1ccc(OC)cc1	%	2.9

Give measured growth inhibition for every item shown.
1. C=CCOC(=O)Cc1ccccc1
2. CCC(Br)C(=O)OCCCl (stereo not drawn)
3. N#CS.N=C=S.N=C=S.[Co+3].[NH-]CC[NH-].[NH-]CC[NH-]
4. CN1CN(c2ccccc2)C2(CCN(CCC3COc4ccccc4O3)CC2)C1=O (stereo not drawn)
5. NC(Cc1ccc(O)c(F)c1)C(=O)O (stereo not drawn)

stdout:
1. 20.5
2. 12
3. 10.5
4. -15.4
5. -37.1

Give measured growth inhibition for every item shown.
1. Clc1cccc(Cl)c1NC1=NCCS1
2. C/C(=N\N=C(N)N)C(CN(C)C)C(c1ccccc1)c1c(O)c2ccccc2oc1=O (stereo not drawn)
3. CCCCCCCCCCNP(=O)(Oc1ccccc1)Oc1ccccc1
4. CC(=O)OC1CCC2(CO)C(CCC3C4CCC(=O)C4(C)CCC32)C1 (stereo not drawn)
5. COC12C(COC(N)=O)C3=C(C(=O)C(C)=C(N4CC4)C3=O)N1CC1NC12 (stereo not drawn)
6. CC(=O)OC1CC2(O)C3CCC4CC(O)CCC4(C)C3CCC2(C)C1C1=CC(=O)OC1 (stereo not drawn)
7. COC(N)=O
8. COc1cc(C2c3cc4c(cc3[C@@H](OC)[C@H]3COC(=O)C23)OCO4)cc(OC)c1O (stereo partly drawn)

stdout:
1. -11.7
2. 25.6
3. -21.8
4. 14.1
5. 87.7
6. -11.1
7. -15.6
8. 89.5

Give measured growth inhibition for every item shown.
1. [N-]=[N+]=CC(=O)c1ccc(Cl)cc1
2. CC(=O)O[C@H]1CC[C@]2(C)[C@H]3CC[C@]4(C)[C@@H](OC(C)=O)CC[C@H]4[C@@H]3[C@H](C=O)[C@]2(O)C1
3. O=C(c1cc(N(CCCl)CCCl)c([N+](=O)[O-])cc1[N+](=O)[O-])N1CCOCC1
4. c1ccc(-c2cc(-c3ccccc3)c(OOc3c(-c4ccccc4)cc(-c4ccccc4)cc3-c3ccccc3)c(-c3ccccc3)c2)cc1

stdout:
34.5
7.9
-1.6
-6.7

stdin: Provide measured growth inhibition value, entry: CN(C)C1(c2ccc3ccccc3c2)CSC1
stdout: -0.4

* * *

Assay: NCI Yeast Anticancer Drug Screen. Data for the sgs1 mgt1 strain (AID 161);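 note: 0% = growth of cultures given vehicle only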
Conditions: S. cerevisiae sgs1 mgt1 strain, at 50.0 µM, active compounds read high
Compounds without any hit were thinned out: in the full panel of roughly 79,000, 15% have a hit.
OBSERVATION TYPE: growth inhibition (%)
One number for each entry, in %.

COMPOUND	OBSERVATION TYPE	UNIT ABBREVIATION	READOUT NUMBER
O=C1CCCN1CC#CCN1C[C@@H]2C3CCC(C3)[C@@H]2C1	growth inhibition	%	6.25
CC(=O)C(N)Cc1ccccc1 (stereo not given)	growth inhibition	%	10
CCC(CCl)NC(CC(C)C)CC(C)C (stereo not given)	growth inhibition	%	-6.75
CC1(C)CN=C(NN=C(/C=C/c2ccc(C(F)(F)F)cc2)/C=C/c2ccc(C(F)(F)F)cc2)NC1	growth inhibition	%	15.3
C[C@@H]1C[C@@H](O)[C@]2(O)O[C@@H]3C[C@@]4(C=O)[C@@H](CC[C@@H]5[C@@H]4CC[C@]4(C)[C@@H](C6=CC(=O)OC6)CC[C@]54O)C[C@H]3O[C@@H]2O1	growth inhibition	%	27.4

Give measured growth inhibition for every item shown.
1. C1C2CC3C1C1CN3C21 (stereo not given)
2. C1CCN2COCC2C1 (stereo not given)
3. CNC(=O)Oc1cccc(N)c1
4. C#C[C@]1(O)CC[C@H]2[C@@H]3CCC4=C/C(=N/OC(=O)c5cccc6c(=O)c7ccccc7[nH]c56)CC[C@@H]4[C@H]3CC[C@@]21C
5. CC(C)/C=C/C1(C(C)C)C(=O)NC(=O)NC1=O

stdout:
[5.45, -38.5, 5.85, 11.3, -4.85]

Data provenance is PubChem BioAssay (NCI).
